assay: chemical genetic growth profiling, strain panel (AID 1159580);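 note: tested at 20 µM; growth read once vehicle control cultures reached saturation at 30 °C; 1 = growth at the plate median or of vehicle wells; lower values mean less growth of the strain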; details: S. cerevisiae deletion strains, growth OD, locus YML016C, strain PPZ1, active compounds read low
Among all 5,500 compounds or so, about 2,000 (36%) were called active. About 18% were inconclusive and are not listed. This is one part of the list.
measuredParameter: normalized growth
Numbers only.

// known answers, use as guide
INSERT INTO results (compound, measuredparameter, resultnumber) VALUES
  ('C[N+]12CCC(CC1)C(OC(=O)C(O)(c1ccccc1)c1ccccc1)C2 (configuration not stated)', 'normalized growth', 0.989),
  ('COc1ccc(-c2c(OC)c3c(OC)c4c(cc3oc2=O)OC(C)(C)C=C4)cc1', 'normalized growth', 1.01),
  ('OC[C@H]1O[C@@H](Oc2ccc(O)cc2)[C@H](O)[C@@H](O)[C@@H]1O', 'normalized growth', 1);

Provide the reported normalized growth of each entry below, same order.
1. O=C(/C=C/c1ccc(O)cc1)c1ccc(O)cc1O
2. COc1cc([C@@H]2c3cc4c(cc3[C@H](O)[C@H]3COC(=O)[C@H]23)OCO4)cc(OC)c1OC
3. O=C(/C=C/c1ccccc1)c1c(O)cc(O)cc1O

Given back:
1: 0.986; 2: 1.01; 3: 1.01

The reported value for CC(C)=CCC/C(C)=C/CO in terms of normalized growth is 1.02
